test conditions: fatty acid with stimulator; result in words
endpoint label: effect of solvent used instead of water on formation of undesired byproducts

CCO [ethanol]: do not arise
OCC(O)CO [glycerol]: do not arise
C[S+](C)[O-] [dimethyl sulfoxide]: do not arise

----------
target or system: enzyme (from seminal vesicles of sheep) (Ovis aries, UniProt P05979)
Sequence (P05979 25-600): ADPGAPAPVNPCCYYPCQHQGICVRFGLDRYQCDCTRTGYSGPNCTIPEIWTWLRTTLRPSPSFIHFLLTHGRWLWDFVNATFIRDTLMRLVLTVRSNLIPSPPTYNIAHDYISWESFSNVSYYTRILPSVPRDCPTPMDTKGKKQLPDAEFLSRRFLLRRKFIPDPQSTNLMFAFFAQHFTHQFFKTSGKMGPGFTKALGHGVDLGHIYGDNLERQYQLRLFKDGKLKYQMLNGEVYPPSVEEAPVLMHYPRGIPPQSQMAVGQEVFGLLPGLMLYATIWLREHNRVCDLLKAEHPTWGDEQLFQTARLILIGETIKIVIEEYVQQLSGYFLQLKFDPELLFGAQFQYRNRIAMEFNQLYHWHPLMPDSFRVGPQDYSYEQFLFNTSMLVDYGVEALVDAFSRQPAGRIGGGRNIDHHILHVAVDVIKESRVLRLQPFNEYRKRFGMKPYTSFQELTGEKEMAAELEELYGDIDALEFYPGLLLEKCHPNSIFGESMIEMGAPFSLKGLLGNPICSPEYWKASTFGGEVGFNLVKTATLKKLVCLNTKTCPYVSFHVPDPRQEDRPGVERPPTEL
test conditions: Table 2; share of total prostaglandin
Exercise: state measured PGE2 % for each of the molecules provided.
Answers are plain numbers, in %.

// below: answered molecules
O=c1c(O)c(-c2ccc(O)cc2)oc2cc(O)cc(O)c12 [Example 56, Kaempferol]: 76
O=C1C[C@@H](c2ccc(O)cc2)Oc2cc(O)cc(O)c21 [Example 55, Naringenin]: 80

Below are some molecules; for each one, tell me its PGE2 %.
1. C[C@@H]1O[C@@H](O[C@H]2[C@H](Oc3cc(O)c4c(c3)O[C@H](c3ccc(O)cc3)CC4=O)O[C@H](CO)[C@@H](O)[C@@H]2O)[C@H](O)[C@H](O)[C@H]1O [Example 54, Naringin]
2. O=c1c(O)c(-c2ccc(O)c(O)c2)oc2cc(O)cc(O)c12 [Example 57, Quercetin]
3. O=C(CCc1ccc(O)cc1)c1c(O)cc(O)cc1O [Example 60, Phloretin]

// result
1. 83
2. 72
3. 76

// query I am curious: what PGE2 % value has been reported for COC1=C(OC)C(=O)C(C/C=C(\C)CC/C=C(\C)CC/C=C(\C)CC/C=C(\C)CC/C=C(\C)CC/C=C(\C)CC/C=C(\C)CC/C=C(\C)CC/C=C(\C)CCC=C(C)C)=C(C)C1=O [Example 47, Vitamin Q10, reference compound] ?
// result 8

----------
test conditions: B) ethanolic solution without further addition; 24 h 37° C.
Give Stability (% of remaining arachidonic acid by Method 1) for every item shown.
Give bare numbers, in %.

NC(Cc1ccc(O)cc1)C(=O)O (stereo not shown): 100

Batch request: Stability (% of remaining arachidonic acid by Method 1) per item, same order as input.
1. NCCc1c[nH]c2ccc(O)cc12
2. N[C@@H](CCC(=O)N[C@@H](CS)C(=O)NCC(=O)O)C(=O)O
3. NCCc1ccc(O)c(O)c1

// result
99
80
95

----------
target or system: enzyme (from seminal vesicles of sheep) (Ovis aries, UniProt P05979)
test conditions: Table 1; share of total prostaglandin (=100%)
Assign PGE2 % to each entry below.
Answers are plain numbers, in %.

Below, 5 compounds whose answers are already recorded.
O=C(O)CCCCC1CCSS1 (stereo not drawn): 43
NCCc1c[nH]c2ccccc12: 81
O=C(O)CCc1c[nH]c2ccc(O)cc12: 80
N[C@@H](Cc1ccccc1)C(=O)O [Example 4, L-phenylalanine, reference compound]: 80
N[C@@H](CCC(=O)N[C@@H](CS)C(=O)NCC(=O)O)C(=O)O: 100

Value sought for every listed compound: PGE2 %.
1. NCCc1ccc(O)cc1
2. NCC(O)c1ccc(O)c(O)c1 (stereo not drawn)

// result
1: 80; 2: 66

----------
target or system: enzyme (from seminal vesicles of sheep) (Ovis aries, UniProt P05979)
test conditions: Table 1; share of total prostaglandin (=100%)
endpoint label: PGF2alpha % (%)
Answers are plain numbers, in %.

NC(Cc1c[nH]c2ccccc12)C(=O)O (centres unmarked): 3
NCCc1ccc(O)cc1: 3
NCCc1ccc(O)c(O)c1: 35
N[C@@H](Cc1ccccc1)C(=O)O [Example 4, L-phenylalanine, reference compound]: 2
NCCc1c[nH]c2ccc(O)cc12: 5

# map each compound to its PGF2alpha %
1. NCCc1c[nH]c2ccccc12
2. CNCC(O)c1ccc(O)c(O)c1 (centres unmarked)
3. NC(Cc1c[nH]c2ccc(O)cc12)C(=O)O (centres unmarked)
4. O=C(O)CCc1ccc(O)cc1
5. N[C@@H](CS)C(=O)O
6. O=C(O)CCCCC1CCSS1 (centres unmarked)
7. NC(Cc1ccc(O)cc1)C(=O)O (centres unmarked)
8. O=C(O)CCc1c[nH]c2ccccc12

// result
3
12
3
1
17
49
2
2
